Just for reference, paper PMC7481290 is where these values come from.

- Test system: Methicillin-resistant S. aureus USA 300
- Type: cell-based, Staphylococcus aureus
- settings: USA 300, 18 h
Non-standard residues stand in square brackets, D forms with d. Residues, ends and D or L forms follow the SMILES beside them. Gly(Nα-4-Cl-benzyl) = O=C(O)CNCc1ccc(Cl)cc1; N(4-Br-benzyl)Gly = O=C(O)CNCc1ccc(Br)cc1; N(4-F-Bzl)Gly = O=C(O)CNCc1ccc(F)cc1; NBzl(4-I)Gly = O=C(O)CNCc1ccc(I)cc1; Nphe = O=C(O)CNCc1ccccc1; Nlys = NCCCCNCC(=O)O
Minimal inhibitory concentration MRSA^c values by entry

# Minimal inhibitory concentration MRSA^c lookup, item NCCCCNCC(=O)N(CC(=O)N(CCCCN)CC(=O)N(CC(=O)N(CCCCN)CC(=O)N(CC(N)=O)Cc1ccc(I)cc1)Cc1ccc(I)cc1)Cc1ccc(I)cc1 [Compound 5] (H-[Nlys][NBzl(4-I)Gly][Nlys][NBzl(4-I)Gly][Nlys][NBzl(4-I)Gly]-NH2)
4 mg/L

I am curious: what Minimal inhibitory concentration MRSA^c value has been reported for NCCCCNCC(=O)N(CC(=O)N(CCCCN)CC(=O)N(CC(=O)N(CCCCN)CC(=O)N(CC(N)=O)Cc1ccc(Br)cc1)Cc1ccccc1)Cc1ccc(Br)cc1 [Compound 8] (H-[Nlys][N(4-Br-benzyl)Gly][Nlys][Nphe][Nlys][N(4-Br-benzyl)Gly]-NH2) ?
64 mg/L

Fill in: Minimal inhibitory concentration MRSA^c of NCCCCNCC(=O)N(CC(=O)N(CCCCN)CC(=O)N(CC(=O)N(CCCCN)CC(=O)N(CC(=O)N(CCCCN)CC(=O)N(CC(=O)N(CCCCN)CC(=O)N(CC(=O)N(CCCCN)CC(=O)N(CC(N)=O)Cc1ccc(I)cc1)Cc1ccc(I)cc1)Cc1ccc(I)cc1)Cc1ccc(I)cc1)Cc1ccc(I)cc1)Cc1ccc(I)cc1 [Compound 32] (H-[Nlys][NBzl(4-I)Gly][Nlys][NBzl(4-I)Gly][Nlys][NBzl(4-I)Gly][Nlys][NBzl(4-I)Gly][Nlys][NBzl(4-I)Gly][Nlys][NBzl(4-I)Gly]-NH2) is ___
32 mg/L

I would be grateful if you could share the reported Minimal inhibitory concentration MRSA^c for NCCCCNCC(=O)N(CC(=O)N(CCCCN)CC(=O)N(CC(=O)N(CCCCN)CC(=O)N(CC(N)=O)Cc1ccc(F)cc1)Cc1ccccc1)Cc1ccc(F)cc1 [Compound 6] (H-[Nlys][N(4-F-Bzl)Gly][Nlys][Nphe][Nlys][N(4-F-Bzl)Gly]-NH2) .
> 512 mg/L

// Minimal inhibitory concentration MRSA^c lookup, key: NCCCCNCC(=O)N(CC(=O)N(CCCCN)CC(=O)N(CC(=O)N(CCCCN)CC(=O)N(CC(N)=O)Cc1ccc(Br)cc1)Cc1ccc(Br)cc1)Cc1ccc(Br)cc1 [Compound 4] (H-[Nlys][N(4-Br-benzyl)Gly][Nlys][N(4-Br-benzyl)Gly][Nlys][N(4-Br-benzyl)Gly]-NH2)
16 mg/L

Fill in: Minimal inhibitory concentration MRSA^c of NCCCCNCC(=O)N(CC(=O)N(CCCCN)CC(=O)N(CC(=O)N(CCCCN)CC(=O)N(CC(=O)N(CCCCN)CC(=O)N(CC(=O)N(CCCCN)CC(=O)N(CC(=O)N(CCCCN)CC(=O)N(CC(N)=O)Cc1ccc(Cl)cc1)Cc1ccccc1)Cc1ccc(Cl)cc1)Cc1ccccc1)Cc1ccc(Cl)cc1)Cc1ccccc1 [Compound 34] (H-[Nlys][Nphe][Nlys][Gly(Nα-4-Cl-benzyl)][Nlys][Nphe][Nlys][Gly(Nα-4-Cl-benzyl)][Nlys][Nphe][Nlys][Gly(Nα-4-Cl-benzyl)]-NH2) is ___
8 mg/L
